biological target: EGFR L858R/T790M (Homo sapiens, UniProt P00533, L858R/T790M); experiment: EGFR biochemical assay (headed HTRF-based; method describes Z'-LYTE), L858R/T790M; settings: Table 4
Sequence (P00533 25-1210 T790M/L858R): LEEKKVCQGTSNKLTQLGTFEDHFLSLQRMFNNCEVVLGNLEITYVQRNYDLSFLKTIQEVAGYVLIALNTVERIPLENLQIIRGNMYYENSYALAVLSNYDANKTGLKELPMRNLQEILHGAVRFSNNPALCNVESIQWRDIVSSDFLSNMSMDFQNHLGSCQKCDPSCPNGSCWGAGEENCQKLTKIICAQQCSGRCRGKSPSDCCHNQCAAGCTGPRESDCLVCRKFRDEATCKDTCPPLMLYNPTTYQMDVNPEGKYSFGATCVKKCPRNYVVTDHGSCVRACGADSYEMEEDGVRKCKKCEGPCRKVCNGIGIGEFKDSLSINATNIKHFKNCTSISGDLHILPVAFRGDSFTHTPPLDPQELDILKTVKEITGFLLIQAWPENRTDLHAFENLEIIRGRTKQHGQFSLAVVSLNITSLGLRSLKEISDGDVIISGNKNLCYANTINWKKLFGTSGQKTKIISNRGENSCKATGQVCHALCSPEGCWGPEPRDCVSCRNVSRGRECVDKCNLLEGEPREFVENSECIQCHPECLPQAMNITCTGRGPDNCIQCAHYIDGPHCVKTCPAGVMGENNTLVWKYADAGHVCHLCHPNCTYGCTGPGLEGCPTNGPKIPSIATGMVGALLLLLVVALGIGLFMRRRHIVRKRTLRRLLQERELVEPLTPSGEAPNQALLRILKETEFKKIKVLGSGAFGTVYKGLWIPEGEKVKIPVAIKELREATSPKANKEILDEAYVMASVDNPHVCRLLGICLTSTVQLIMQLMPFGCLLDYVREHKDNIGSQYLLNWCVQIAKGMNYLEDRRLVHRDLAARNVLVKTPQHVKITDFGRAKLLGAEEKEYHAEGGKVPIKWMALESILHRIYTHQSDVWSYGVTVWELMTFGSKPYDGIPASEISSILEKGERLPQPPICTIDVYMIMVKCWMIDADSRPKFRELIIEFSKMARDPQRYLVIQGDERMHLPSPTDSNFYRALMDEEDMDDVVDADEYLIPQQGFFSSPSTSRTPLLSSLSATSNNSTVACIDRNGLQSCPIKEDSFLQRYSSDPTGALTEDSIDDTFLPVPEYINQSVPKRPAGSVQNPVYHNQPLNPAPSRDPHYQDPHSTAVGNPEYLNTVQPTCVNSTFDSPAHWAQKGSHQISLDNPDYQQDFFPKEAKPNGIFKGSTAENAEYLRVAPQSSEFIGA
Listing: IC50 of selected compounds

Prompt: Given "C=CC(=O)N1C[C@@H](N2Cc3cnc(Nc4ccc(N5CCN(C)CC5)cc4)nc3N(C)C2=O)C[C@@H]1C(=O)O" , state its recorded IC50.
Response: > 1000 nM

----------
molecular target: EGFR L858R/C797S Ba/F3 cells (Homo sapiens, UniProt P00533, C797S/L858R, cells depend on it); experiment: Ba/F3 cell proliferation (Cell Titer Glo), EGFR L858R/C797S; type: cell-based, murine; settings: 72 hours, Table 6
Sequence (P00533 whole entry C797S/L858R): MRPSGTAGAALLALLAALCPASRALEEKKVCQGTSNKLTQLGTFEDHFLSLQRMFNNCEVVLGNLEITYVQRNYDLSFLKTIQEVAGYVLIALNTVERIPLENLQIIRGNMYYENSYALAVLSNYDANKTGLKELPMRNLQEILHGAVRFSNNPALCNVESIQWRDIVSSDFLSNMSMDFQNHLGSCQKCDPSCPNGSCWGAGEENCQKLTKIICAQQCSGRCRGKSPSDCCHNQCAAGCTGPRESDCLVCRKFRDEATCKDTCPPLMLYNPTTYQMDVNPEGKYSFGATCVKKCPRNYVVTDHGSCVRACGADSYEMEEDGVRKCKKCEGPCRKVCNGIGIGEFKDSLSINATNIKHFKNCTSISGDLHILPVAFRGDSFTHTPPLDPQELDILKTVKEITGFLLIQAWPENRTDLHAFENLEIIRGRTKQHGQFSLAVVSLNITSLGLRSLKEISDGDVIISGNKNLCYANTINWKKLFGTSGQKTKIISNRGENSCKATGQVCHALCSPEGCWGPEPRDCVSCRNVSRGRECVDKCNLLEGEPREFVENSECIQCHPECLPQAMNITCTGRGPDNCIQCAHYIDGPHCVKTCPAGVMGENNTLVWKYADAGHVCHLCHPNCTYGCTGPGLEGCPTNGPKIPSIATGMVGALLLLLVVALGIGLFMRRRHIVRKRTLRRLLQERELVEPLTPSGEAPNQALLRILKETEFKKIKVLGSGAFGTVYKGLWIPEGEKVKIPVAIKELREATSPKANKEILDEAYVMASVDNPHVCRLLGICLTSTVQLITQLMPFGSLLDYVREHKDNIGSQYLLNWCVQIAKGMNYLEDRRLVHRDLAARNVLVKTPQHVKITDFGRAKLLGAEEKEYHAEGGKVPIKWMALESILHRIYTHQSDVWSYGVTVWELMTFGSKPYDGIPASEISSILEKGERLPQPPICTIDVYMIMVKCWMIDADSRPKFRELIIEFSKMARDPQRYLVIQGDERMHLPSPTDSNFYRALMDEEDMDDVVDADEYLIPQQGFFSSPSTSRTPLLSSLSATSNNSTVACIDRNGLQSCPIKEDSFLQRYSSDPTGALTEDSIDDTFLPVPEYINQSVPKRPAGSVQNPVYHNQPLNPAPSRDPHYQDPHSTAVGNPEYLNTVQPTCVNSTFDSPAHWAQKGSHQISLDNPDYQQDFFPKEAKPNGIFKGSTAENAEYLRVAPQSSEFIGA
endpoint-name: GI50

Prompt: Given C=CC(=O)N1CCC(N2Cc3cnc(Nc4ccc(N5CCN(C)CC5)c(F)c4)nc3N(C)C2=O)c2ccccc21 (centres unmarked) [Compound 055] , state its recorded GI50.
Response: < 0.1 µM

Prompt: Now consider C=CC(=O)N1CCC(N2Cc3cnc(Nc4ccc(N5CCN(C)CC5)cc4)nc3N(C)C2=O)c2cccc(C(F)(F)F)c21 (centres unmarked) [Compound 143] and answer again.
Response: ≥ 2.5 µM

Prompt: Next up: C=CC(=O)N1CC2CC1CC2N1Cc2cnc(Nc3ccc(N4CCN(C)CC4)cc3)nc2N(C)C1=O (centres unmarked) [Compound 059]
Response: ≥ 2.5 µM

Prompt: C=CC(=O)N1CCC(N2Cc3cnc(Nc4ccc(N5CCN(C)CC5)cc4)nc3N(C)C2=O)c2cccc(OC)c21 (single isomer, unassigned) [Compound 123] , same question.
Response: ≥ 2.5 µM

Prompt: Repeat for the following molecule: C=CC(=O)N1CCC(n2c(=O)c3cnc(Nc4cnn(CCO)c4)nc3n(C)c2=O)c2ccccc21 (centres unmarked) [Compound 122]
Response: 0.5 to 2.5 µM

----------
target: EGFR L858R/C797S Ba/F3 cells (Homo sapiens, UniProt P00533, C797S/L858R, cells depend on it); test: Ba/F3 cell proliferation (Cell Titer Glo), EGFR L858R/C797S; format: cell-based, murine; conditions: 72 hours, Table 6
Catalogue of molecules with associated GI50

The examples below pair each entry with its known result.
molecule: C=CC(=O)N1C[C@@H](N2Cc3cnc(Nc4ccc(N5CCN(C)CC5)cc4)nc3N(C)C2=O)C[C@@H]1C(=O)O
GI50: ≥ 2.5 µM
//
molecule: C=CC(=O)N1CCC(N2Cc3nnc(Nc4ccc(N5CCN(C)CC5)cc4)cc3N(C)C2=O)c2ccccc21 (stereo not shown)
GI50: ≥ 2.5 µM
//
molecule: C=CC(=O)N1CCC(N2Cc3cnc(Nc4ccc(CN5CCN(C)CC5)cc4)nc3N(C)C2=O)c2ccccc21 (stereo not shown)
GI50: < 0.1 µM

Now for another entry.
Prompt: Item C=CC(=O)N1CCC(N2Cc3cnc(Nc4ccc(N5CCN(C)C6(CC6)C5)cc4)nc3N(C)C2=O)c2ccccc21 (stereo not shown) has what recorded GI50?
Response: < 0.1 µM

----------
target: EGFR L858R (Homo sapiens, UniProt P00533, L858R); experiment: EGFR biochemical assay (headed HTRF-based; method describes Z'-LYTE), L858R; conditions: Table 4
endpoint-name: IC50

// below: answered compounds
compound: C=CC(=O)N1CC[C@@H](N2Cc3cnc(Nc4cnn(CCO)c4)nc3N(C)C2=O)c2cccc(OC)c21 (single isomer, unassigned)
meas-value: > 100 nM

compound: C=CC(=O)N1CCC(N2Cc3cnc(Nc4ccc(N5CCN(C)CC5)cc4)nc3N(C)C2=O)c2cccc(C#N)c21 (stereo not drawn)
meas-value: > 1000 nM

Prompt: State the recorded IC50 for this entry: "C=CC(=O)N1CC[C@H](N2Cc3cnc(Nc4cnn(CCO)c4)nc3N(C)C2=O)c2cccc(OC)c21"
Response: > 100 nM

----------
target: EGFR L858R/T790M (Homo sapiens, UniProt P00533, L858R/T790M); experiment: EGFR biochemical assay (headed HTRF-based; method describes Z'-LYTE), L858R/T790M; details: Table 4
Each entry below carries its recorded IC50.

A selection of reference data follows.
compound: C=C(CN1CC(N2Cc3cnc(Nc4ccc(N5CCN(C)CC5)cc4)nc3N(C)C2=O)C1)C(=O)O [Compound 137]
IC50: > 1000 nM

compound: C=CC(=O)N1CCC2(N3Cc4cnc(Nc5ccc(OCCN6CCCC6)cc5)nc4N(C)C3=O)CC2C1 (stereo not shown) [Compound 121]
IC50: > 100 nM

compound: C=CC(=O)N1CC[C@H](N2Cc3cnc(Nc4ccc(N5CCN(C)CC5)cc4)nc3N(C)C2=O)c2cccc(C)c21 [Compound 140]
IC50: > 1000 nM

compound: C=CC(=O)N1CC[C@H](N2Cc3cnc(Nc4ccc(N5CCN(C)CC5)cc4)nc3N(C)C2=O)[C@H](N)C1 (relative stereo) [Compound 148]
IC50: > 1000 nM

Prompt: Please give the measured IC50 for this compound: C=CC(=O)N1CCC(N2Cc3cnc(Nc4ccc(N5CCN(C)CC5)cc4)nc3N(C)C2=O)c2cccc(O)c21 (stereo not shown) [Compound 133]
Response: 10 nM

Prompt: Now try C=C(CN1CCC(N2Cc3cnc(Nc4ccc(N5CCN(C)CC5)cc4)nc3N(C)C2=O)C1)C(=O)O (stereo not shown) [Compound 136] .
Response: > 1000 nM

Prompt: And C=CC(=O)N1CC[C@@H](N2Cc3cnc(Nc4ccc(N5CCN(C)CC5)cc4)nc3N(C)C2=O)c2cccc(O)c21 (single isomer, unassigned) [Compound 155] ?
Response: 85.7 nM

----------
target: EGFR L858R (Homo sapiens, UniProt P00533, L858R); experiment: EGFR biochemical assay (headed HTRF-based; method describes Z'-LYTE), L858R; details: Table 4
endpoint-name: IC50 (nM)
Write the number in nM without appending the unit.

compound: C=CC(=O)Nc1cccc(N2C(=O)N(C3CCN(C(=O)C=C)c4ccccc43)Cc3cnc(Nc4ccc(N5CCN(C)CC5)cc4)nc32)c1 (stereo not drawn)
IC50 / nM: 1.07

Here is the next item to consider.
Prompt: Name the recorded IC50 for C=CC(=O)N1CCC(N2Cc3cnc(Nc4ccc(N5CCN(C)CC5)cc4)nc3N(CC(F)F)C2=O)c2cccc(OC)c21 (stereo not drawn) .
Response: 38.9

----------
In this section, each of the compounds is paired with its reported GI50.
biological target: EGFR mutant L858R Ba/F3 cells (Homo sapiens, UniProt P00533, L858R, cells depend on it); test: Ba/F3 cell proliferation (Cell Titer Glo), EGFR L858R; format: cell-based, murine; details: 72 hours, Table 6, read-out: L858R BaF3
Sequence (P00533 whole entry L858R): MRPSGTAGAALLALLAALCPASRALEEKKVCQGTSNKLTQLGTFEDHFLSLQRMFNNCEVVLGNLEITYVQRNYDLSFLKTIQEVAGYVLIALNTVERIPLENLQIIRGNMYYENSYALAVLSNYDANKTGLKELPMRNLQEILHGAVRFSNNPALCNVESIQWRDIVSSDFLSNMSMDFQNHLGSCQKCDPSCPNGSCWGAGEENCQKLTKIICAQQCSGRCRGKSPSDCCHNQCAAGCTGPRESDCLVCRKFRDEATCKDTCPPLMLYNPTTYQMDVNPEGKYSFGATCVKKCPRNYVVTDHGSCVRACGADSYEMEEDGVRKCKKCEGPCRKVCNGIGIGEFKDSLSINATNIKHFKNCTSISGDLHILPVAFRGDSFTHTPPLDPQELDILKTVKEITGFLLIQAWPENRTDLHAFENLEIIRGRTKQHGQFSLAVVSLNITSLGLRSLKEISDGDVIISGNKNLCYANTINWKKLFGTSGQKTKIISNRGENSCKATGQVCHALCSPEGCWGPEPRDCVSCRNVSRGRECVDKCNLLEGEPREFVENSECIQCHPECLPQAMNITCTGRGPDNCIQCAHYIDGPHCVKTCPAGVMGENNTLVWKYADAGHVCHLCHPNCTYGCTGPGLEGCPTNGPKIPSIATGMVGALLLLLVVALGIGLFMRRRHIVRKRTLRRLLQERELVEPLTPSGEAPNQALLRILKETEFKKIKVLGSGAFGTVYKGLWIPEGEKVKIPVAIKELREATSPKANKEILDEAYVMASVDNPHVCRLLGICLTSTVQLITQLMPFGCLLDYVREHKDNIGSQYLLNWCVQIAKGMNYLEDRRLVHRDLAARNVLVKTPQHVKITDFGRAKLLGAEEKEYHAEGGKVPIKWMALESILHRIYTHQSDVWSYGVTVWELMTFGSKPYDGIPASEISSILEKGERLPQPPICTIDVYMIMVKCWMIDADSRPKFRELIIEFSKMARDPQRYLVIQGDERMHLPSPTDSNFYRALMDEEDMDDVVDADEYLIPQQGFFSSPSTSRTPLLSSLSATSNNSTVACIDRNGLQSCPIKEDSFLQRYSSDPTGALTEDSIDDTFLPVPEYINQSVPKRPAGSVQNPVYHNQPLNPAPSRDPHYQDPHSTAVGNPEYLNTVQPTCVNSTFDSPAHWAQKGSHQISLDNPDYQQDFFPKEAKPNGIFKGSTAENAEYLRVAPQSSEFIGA

compound: CN1C(=O)N(C2CN(C#N)c3ccccc32)Cc2cnc(Nc3cnn(CCO)c3)nc21 (stereo not shown)
GI50: ≥ 2500 nM

Prompt: Requested read-out: GI50. Entry: C=CC(=O)N1CC2CC1CC2N1Cc2cnc(Nc3ccc(N4CCN(C)CC4)cc3)nc2N(C)C1=O (stereo not shown)
Response: ≥ 2500 nM

Prompt: Now consider C=CC(=O)N1CCC(N2Cc3cnc(Nc4ccc(N5CCN(C)CC5)cn4)nc3N(C)C2=O)c2ccccc21 (stereo not shown) and answer again.
Response: < 100 nM

Prompt: Can you handle C=CC(=O)N1CCC(N2Cc3cnc(Nc4ccc(N5CCN(C)CC5)cc4)nc3N(C)C2=O)c2cnn(C)c21 (stereo not shown) next?
Response: 100 to 500 nM

Prompt: Another compound to look at: "C=CC(=O)Nc1cn(C)nc1CN1Cc2cnc(Nc3ccc(N4CCN(C)CC4)cc3)nc2N(C)C1=O"
Response: ≥ 2500 nM

Prompt: Input C=CC(=O)N1CCC(N2Cc3cnc(Nc4ccc(N5CCN(C)CC5)c(F)c4)nc3N(C)C2=O)c2ccccc21 (stereo not shown)
Response: < 100 nM

Prompt: Entry to check: "CN1CCN(c2ccc(Nc3ncc4c(n3)N(C)C(=O)N([C@H]3CCN(C(=O)CC#N)c5ccccc53)C4)cc2)CC1"
Response: ≥ 2500 nM

----------
biological target: EGFR L858R (Homo sapiens, UniProt P00533, L858R); assay: EGFR biochemical assay (headed HTRF-based; method describes Z'-LYTE), L858R; details: Table 4
// pIC50 lookup, one value per entry
When answering, recall that pIC50 equals minus log10 of the concentration in mol/L, and write that number alone.

compound: C=CC(=O)N1CCC(N2Cc3cnc(Nc4ccc(N5CCN(C)CC5)cc4)nc3N(C)C2=O)c2cccc(O)c21 (single isomer, unassigned) [Compound 156]
pIC50: 9.74
//
compound: [2H]C1(N2Cc3cnc(Nc4ccc(N5CCN(C)CC5)cc4)nc3N(C)C2=O)CCN(C(=O)C=C)c2c(OC)cccc21 (stereo not drawn) [Compound 130]
pIC50: 7.37
//
compound: C=CC(=O)N1CC[C@H](N2Cc3cnc(Nc4ccc(CS(=O)(=O)NC)cc4)nc3N(C)C2=O)c2cccc(C)c21 [Compound 145]
pIC50: 8.75

Please find the next compound below.
Prompt: GET /values?readout=pIC50&item= C=CC(=O)N1CC[C@H](N2Cc3cnc(Nc4ccc(N5CCN(C)CC5)cc4)nc3N(CCO)C2=O)c2cccc(C)c21 [Compound 153]
Response: 9.06
